- System: GLP1R (Homo sapiens, UniProt P43220)
- Sequence (P43220 24-463): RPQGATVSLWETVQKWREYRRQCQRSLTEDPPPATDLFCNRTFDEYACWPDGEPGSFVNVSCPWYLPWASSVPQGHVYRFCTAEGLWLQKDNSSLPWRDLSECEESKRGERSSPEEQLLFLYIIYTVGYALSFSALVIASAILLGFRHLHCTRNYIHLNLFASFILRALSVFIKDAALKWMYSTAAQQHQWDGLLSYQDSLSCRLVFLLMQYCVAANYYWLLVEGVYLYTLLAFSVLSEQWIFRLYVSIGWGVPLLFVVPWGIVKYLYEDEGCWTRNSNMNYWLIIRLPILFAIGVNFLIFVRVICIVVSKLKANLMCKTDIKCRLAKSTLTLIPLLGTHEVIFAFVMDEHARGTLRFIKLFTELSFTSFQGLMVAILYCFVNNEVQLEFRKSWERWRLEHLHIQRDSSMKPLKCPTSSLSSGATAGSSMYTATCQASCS
- Method summary: GLP1R cAMP HTRF assay, HEK293/GLP-1R/CRE/Luc (HEK293T cells)
- Type: cell-based
- Condition description: read-out: EC50
# Lookup of reported EC50 keyed by entry

{"Molecule": "O=C(O)c1ccc2nc(CN3CCN(c4cccc(NCc5ccc(Cl)cc5F)n4)CC3)n(C[C@@H]3CCO3)c2c1 [Compound 1]", "EC50": "≤ 15 nM"}
{"Molecule": "O=C(O)c1ccc2nc(CN3CC=C(c4cc(OCc5ccc(Cl)cc5F)ccn4)CC3)n(C[C@@H]3CCO3)c2c1 [Compound 30]", "EC50": "≤ 150 nM"}
{"Molecule": "O=C(O)c1ccc2nc(CN3CC=C(c4ccc(F)c(OCc5ccc(Cl)cc5F)c4)CC3)n(C[C@@H]3CCO3)c2c1 [Compound 29]", "EC50": "≤ 15 nM"}
{"Molecule": "O=C(O)c1ccc2nc(CN3CC(=O)N(c4cccc(OCc5ccc(Cl)cc5F)n4)CC3=O)n(C[C@@H]3CCO3)c2c1 [Compound 168]", "EC50": "≤ 15 nM"}
{"Molecule": "O=C(O)c1ccc2nc(CN3CCC(c4ccc5ccn(Cc6ccc(Cl)cc6F)c5c4)CC3)n(C[C@@H]3CCO3)c2c1 [Compound 26]", "EC50": "> 1000 nM"}
{"Molecule": "O=C(O)c1ccc2nc(CN3CCN(c4cccc(OCc5ccc(Cl)cc5F)n4)CC3=O)n(C[C@@H]3CCO3)c2c1 [Compound 106]", "EC50": "≤ 15 nM"}
{"Molecule": "O=C(O)c1ccc2nc(CN3CC=C(c4cccc(OCc5ccc6c(c5)OCCO6)n4)CC3)n(C[C@@H]3CCO3)c2c1 [Compound 151]", "EC50": "≤ 15 nM"}
{"Molecule": "O=C(O)c1ccc2nc(CN3CC=C(c4cc5nc[nH]c5c(OCc5ccc(Cl)cc5F)n4)CC3)n(C[C@@H]3CCO3)c2c1 [Compound 58]", "EC50": "> 1000 nM"}
{"Molecule": "O=C(O)c1ccc2nc(CN3CC=C(c4cccc(OCc5cc(F)cc(F)c5)n4)CC3)n(C[C@@H]3CCO3)c2c1 [Compound 142]", "EC50": "≤ 150 nM"}
{"Molecule": "O=C(O)c1ccc2nc(CN3CC=C(c4cc(F)c(F)c(OCc5ccc(Cl)cc5F)c4)CC3)n(C[C@@H]3CCO3)c2c1 [Compound 41]", "EC50": "≤ 15 nM"}
{"Molecule": "O=C(O)c1ccc2nc(CN3CC=C(c4cccc(OC5CCCc6cc(Cl)ccc65)n4)CC3)n(C[C@@H]3CCO3)c2c1 (stereo partly shown) [Compound 60]", "EC50": "≤ 1000 nM"}
{"Molecule": "O=C(O)c1ccc2nc(CN3CCN(c4ncc(F)c(OCc5ccc(Cl)cc5F)n4)CC3)n(C[C@@H]3CCO3)c2c1 [Compound 180]", "EC50": "≤ 15 nM"}
{"Molecule": "N#Cc1ccc(COc2cccc(N3CCC(Cc4nc5ccc(C(=O)O)nc5n4C[C@@H]4CCO4)CC3)n2)c(F)c1 [Compound 227]", "EC50": "≤ 15 nM"}

###

- System: GLP1R (Homo sapiens, UniProt P43220)
- Method summary: GLP1R cAMP HTRF assay, HEK293/GLP-1R/CRE/Luc (HEK293T cells)
- Format: cell-based
- Condition description: read-out: EC50
# Lookup of reported EC50 keyed by entry

{"Smiles text": "Cn1ccnc1Cn1c(CN2CCN(c3ccc4c(n3)N(Cc3ccc(Cl)cc3F)CCO4)CC2)nc2ccc(C(=O)O)cc21", "EC50": "> 1000 nM"}
{"Smiles text": "O=C(O)c1ccc2nc(CN3CCN(c4ccc5ccn(Cc6ccc(Cl)cc6F)c5c4)CC3)n(C[C@@H]3CCO3)c2c1", "EC50": "> 1000 nM"}
{"Smiles text": "O=C(O)c1ccc2nc(CN3CCN(c4cccn(CCc5ccc(Cl)cc5F)c4=O)CC3)n(C[C@@H]3CCO3)c2c1", "EC50": "> 1000 nM"}
{"Smiles text": "O=C(O)c1ccc2nc(CN3CCC(c4cccc(OCc5ccc(Cl)cc5F)c4)CC3)n(C[C@@H]3CCO3)c2c1", "EC50": "≤ 15 nM"}
{"Smiles text": "CCn1cncc1Cn1c(CN2CC=C(c3cccc(OCc4ccc(C#N)cc4F)n3)CC2)nc2ccc(C(=O)O)cc21", "EC50": "≤ 15 nM"}
